The following compounds are listed with their measured IC50 values.
# System: leukotriene pathway in human whole blood (LTB4)
# assay-explanation: Human whole blood assay (LTB4 levels after calcium ionophore A23187 stimulation)
# Type: cell-based
# study-conditions: Homo sapiens, human whole blood diluted 1:1, A23187 stimulation; Table 6 (additional runs); read-out: Human Whole Blood LTB4 IC50 1:1
# Method: The ability of the compounds of the present invention to treat a FLAP-mediated disease and/or disorder, or associated symptoms or complications thereof, was determined using the following procedures. Binding assay data represent the average value obtained from two different assay plates, with samples run in duplicate on each plate. Human whole blood assay data represent a single replicate on an assay plate using whole blood from at least one healthy donor. […]
Where a name gives a salt, the structure may show the parent alone.

| compound | units-of-measure | value-modifier | IC50 |
| --- | --- | --- | --- |
| Nc1cnc(-c2ccc(-c3ccccc3-c3cnsc3)cc2F)cn1 | nM | = | 336 |
| CNc1ncc(-c2ccccc2-c2ccc(-c3cnc(N)cn3)c(F)c2)cn1 | nM | = | 53 |
| Nc1ncc(-c2ccc(-c3cccnc3S(=O)(=O)c3ccccc3)cc2F)cn1 | nM | = | 928 |
| Nc1cnc(-c2ccc(-c3cccnc3S(=O)(=O)c3cccnc3)cc2F)cn1 | nM | = | 87.3 |
| Nc1ncc(-c2ccc(-c3cccnc3Oc3ccccc3)cc2F)cn1 | nM | = | 222 |
| Nc1cnc(-c2ccc(-c3ccccc3C(=O)N3CCS(=O)(=O)CC3)cc2F)cn1 | nM | = | 160 |
| Nc1cnc(-c2ccc(-c3ccccc3-c3ccc(N)nn3)cc2F)cn1 | nM | = | 140 |
| CC(C)(C)C(=O)Nc1ncccc1-c1ccc(-c2cnc3[nH]ccc3c2)c(F)c1 | nM | > | 1000 |
| Nc1ncc(-c2ccc(-c3ccccc3-c3cn[nH]c3)cc2F)cn1 | nM | = | 1080 |
| CC(=O)N1CCC(S(=O)(=O)c2nc(C(F)(F)F)ccc2-c2ccc(-c3cnc(N)nc3)c(F)c2)CC1 | nM | = | 28.7 |
| Nc1cnc(-c2ccc(-c3cccnc3S(=O)(=O)C3CC3)cc2F)cn1 [Example 829, formic acid salt] | nM | = | 9 |
| Nc1ncc(-c2ccc(-c3ccc(C(F)(F)F)nc3S(=O)(=O)C3CCS(=O)(=O)CC3)cc2F)cn1 | nM | = | 11.9 |
| Nc1ncc(-c2ccc(-c3ccc(C(F)(F)F)cc3C(=O)N3CCOCC3)cc2F)cn1 | nM | = | 264 |
| Nc1ncc(-c2ncc(-c3ccccc3S(=O)(=O)C3CC3)cc2F)cn1 | nM | = | 320 |
| Nc1cnc(-c2ccc(-c3ccccc3-c3cnc(N4CCNCC4)nc3)cc2F)cn1 | nM | = | 121 |
| C[C@H](CO)NS(=O)(=O)c1ccccc1-c1cnc(-c2cnc(N)nc2)c(F)c1 | nM | = | 128 |
| CS(=O)(=O)N1CCC(S(=O)(=O)c2ncccc2-c2ccc(-c3cnc(N)nc3)c(F)c2)CC1 | nM | = | 117 |
